The reported measurements were obtained from patent US20250326771A1.

target: XIAP-BIR3 (Homo sapiens (Human)); test: BIR binding assay (FRET competition), XIAP BIR3; details: fold separation (FS) for XIAP
Sequence (P98170 241-356): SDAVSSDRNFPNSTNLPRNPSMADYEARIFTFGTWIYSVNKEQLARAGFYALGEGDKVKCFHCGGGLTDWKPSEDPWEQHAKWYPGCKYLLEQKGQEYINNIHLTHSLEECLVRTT
Measurement Type: XIAP BIR3 vs BIR2 separation window

These solved cases illustrate the format of a correct answer.
{"Molecule": "C[C@@H]1CN(CC(=O)N2CC(C)(C)c3[nH]c(=O)c(Cc4cc(F)c(F)cc4F)cc32)[C@@H](CN2CCO[C@H](C(=O)NCc3ccc(CNC(=O)[C@@H]4CN(C[C@H]5CN[C@H](C)CN5CC(=O)N5CC(C)(C)c6[nH]c(=O)c(Cc7cc(F)c(F)cc7F)cc65)CCO4)cc3)C2)CN1 [Compound 175]", "Measurement Type": "XIAP BIR3 vs BIR2 separation window", "Reading": "++++ (FS>10,000)"}
{"Molecule": "C[C@@H]1CN(CC(=O)N2CC(C)(C)c3[nH]c(=O)c(Cc4ccc(F)cc4)cc32)[C@@H](CN2CCO[C@H](C(=O)NCCOCCOCCOCCNC(=O)[C@@H]3CN(C[C@H]4CN[C@H](C)CN4CC(=O)N4CC(C)(C)c5[nH]c(=O)c(Cc6ccc(F)cc6)cc54)CCO3)C2)CN1 [Example 121]", "Measurement Type": "XIAP BIR3 vs BIR2 separation window", "Reading": "++++ (FS>10,000)"}
{"Molecule": "C[C@@H]1CN(CC(=O)N2CC(C)(C)c3[nH]c(=O)c(Cc4ccc(F)cc4)cc32)[C@@H](CN2CCO[C@H](C(=O)NCCCCNC(=O)[C@@H]3CN(C[C@H]4CN[C@H](C)CN4CC(=O)N4CC(C)(C)c5[nH]c(=O)c(Cc6ccc(F)cc6)cc54)CCO3)C2)CN1 [Example 126]", "Measurement Type": "XIAP BIR3 vs BIR2 separation window", "Reading": "++++ (FS>10,000)"}
{"Molecule": "C[C@@H]1CN(CC(=O)N2CC(C)(C)c3[nH]c(=O)c(Cc4ccc(F)cc4)cc32)[C@@H](CN2CCN(C(=O)COc3cccc(OCC(=O)N4CCN(C[C@H]5CN[C@H](C)CN5CC(=O)N5CC(C)(C)c6[nH]c(=O)c(Cc7ccc(F)cc7)cc65)[C@H](C)C4)c3)C[C@H]2C)CN1 [Example 11]", "Measurement Type": "XIAP BIR3 vs BIR2 separation window", "Reading": "++++ (FS>10,000)"}
{"Molecule": "C[C@@H]1CN(CC(=O)N2CC(C)(C)c3[nH]c(=O)c(Cc4ccc(F)cc4)cc32)[C@@H](CN2CCC(CN(C)C(=O)Cc3cccc(C(=O)N(C)CC4CCN(C[C@H]5CN[C@H](C)CN5CC(=O)N5CC(C)(C)c6[nH]c(=O)c(Cc7ccc(F)cc7)cc65)CC4)c3)CC2)CN1 [Example 98]", "Measurement Type": "XIAP BIR3 vs BIR2 separation window", "Reading": "++++ (FS>10,000)"}

Give its XIAP BIR3 vs BIR2 separation window value. Item: C[C@@H]1CN(CC(=O)N2CC(C)(C)c3[nH]c(=O)c(Cc4ccc(F)cc4)cc32)[C@@H](CN2CCO[C@H](C(=O)N[C@H]3CC[C@H](NC(=O)[C@@H]4CN(C[C@H]5CN[C@H](C)CN5CC(=O)N5CC(C)(C)c6[nH]c(=O)c(Cc7ccc(F)cc7)cc65)CCO4)CC3)C2)CN1 [Example 92] ++++ (FS>10,000)

====

Here, each record is paired with measured IC50 data.
target: cIAP1-BIR2 (Homo sapiens (Human), UniProt Q13490); assay: BIR binding assay (FRET competition), cIAP1 BIR2
Sequence (Q13490 173-257): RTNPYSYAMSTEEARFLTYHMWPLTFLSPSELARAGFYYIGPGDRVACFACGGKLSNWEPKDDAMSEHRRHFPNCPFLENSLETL

These solved cases illustrate the format of a correct answer.
{"Compound": "C[C@@H]1CN(CC(=O)N2CC(C)(C)c3[nH]c(=O)c(Cc4ccc(F)cc4)cc32)[C@@H](CN2CCO[C@H](C(=O)N(C)CCCN(C)C(=O)[C@@H]3CN(C[C@H]4CN[C@H](C)CN4CC(=O)N4CC(C)(C)c5[nH]c(=O)c(Cc6ccc(F)cc6)cc54)CCO3)C2)CN1 [Example 130]", "Target": "cIAP1-BIR2 (Homo sapiens (Human), UniProt Q13490)", "Measurement Type": "IC50", "Reading": "1 to 3.16 µM"}
{"Compound": "C[C@@H]1CN(CC(=O)N2CC(C)(C)c3[nH]c(=O)c(Cc4ccc(F)cc4)cc32)[C@@H](CN2CCN(C(=O)/C=C/c3ccc(/C=C/C(=O)N4CCN(C[C@H]5CN[C@H](C)CN5CC(=O)N5CC(C)(C)c6[nH]c(=O)c(Cc7ccc(F)cc7)cc65)[C@H](C)C4)cc3)C[C@H]2C)CN1 [Example 14]", "Target": "cIAP1-BIR2 (Homo sapiens (Human), UniProt Q13490)", "Measurement Type": "IC50", "Reading": "0.0224 to 1 µM"}
{"Compound": "C[C@@H]1CN(CC(=O)N2CC(C)(C)c3[nH]c(=O)c(Cc4ccc(Cl)cc4C#N)cc32)[C@@H](CN2CCO[C@H](C(=O)NCc3ccc(CNC(=O)[C@@H]4CN(C[C@H]5CN[C@H](C)CN5CC(=O)N5CC(C)(C)c6[nH]c(=O)c(Cc7ccc(Cl)cc7C#N)cc65)CCO4)cc3)C2)CN1 [Compound 171]", "Target": "cIAP1-BIR2 (Homo sapiens (Human), UniProt Q13490)", "Measurement Type": "IC50", "Reading": "0.0224 to 1 µM"}

Give its IC50 value. Item: C[C@@H]1CN(CC(=O)N2CC(C)(C)c3[nH]c(=O)c(Oc4ccc(F)cc4)cc32)[C@@H](CN2CCO[C@H](C(=O)NCc3ccc(CNC(=O)[C@@H]4CN(C[C@H]5CN[C@H](C)CN5CC(=O)N5CC(C)(C)c6[nH]c(=O)c(Oc7ccc(F)cc7)cc65)CCO4)cc3)C2)CN1 [Compound 181] 3.16 to 10 µM

Give its IC50 value. Item: C[C@@H]1CN(CC(=O)N2CC(C)(C)c3[nH]c(=O)c(Cc4ccc(F)cc4)cc32)[C@@H](CN2CCC(CCN(C)C(=O)c3ccc(C(=O)N(C)CCC4CCN(C[C@H]5CN[C@H](C)CN5CC(=O)N5CC(C)(C)c6[nH]c(=O)c(Cc7ccc(F)cc7)cc65)CC4)cc3)CC2)CN1 [Example 104] 1 to 3.16 µM

Give its IC50 value. Item: C[C@@H]1CN(CC(=O)N2CC(C)(C)c3[nH]c(=O)c(Cc4ccc(F)cc4)cc32)[C@@H](CN2CCO[C@H](COc3cccc(OC[C@@H]4CN(C[C@H]5CN[C@H](C)CN5CC(=O)N5CC(C)(C)c6[nH]c(=O)c(Cc7ccc(F)cc7)cc65)CCO4)c3F)C2)CN1 [Example 72] 0.0224 to 1 µM

Give its IC50 value. Item: C[C@@H]1CN(CC(=O)N2CC(C)(C)c3[nH]c(=O)c(Cc4ccc(F)cc4)cc32)[C@@H](CN2CCC(CNC(=O)c3ccc(C(=O)NCC4CCN(C[C@H]5CN[C@H](C)CN5CC(=O)N5CC(C)(C)c6[nH]c(=O)c(Cc7ccc(F)cc7)cc65)CC4)cc3)CC2)CN1 [Example 101] 3.16 to 10 µM
